Where do the numbers come from? From patent US10047051B2.

# System Tested: CFTR-G178R (Homo sapiens, UniProt P13569, G178R)
# Construct: expressed in transfected cells
# Sequence (P13569 whole entry G178R): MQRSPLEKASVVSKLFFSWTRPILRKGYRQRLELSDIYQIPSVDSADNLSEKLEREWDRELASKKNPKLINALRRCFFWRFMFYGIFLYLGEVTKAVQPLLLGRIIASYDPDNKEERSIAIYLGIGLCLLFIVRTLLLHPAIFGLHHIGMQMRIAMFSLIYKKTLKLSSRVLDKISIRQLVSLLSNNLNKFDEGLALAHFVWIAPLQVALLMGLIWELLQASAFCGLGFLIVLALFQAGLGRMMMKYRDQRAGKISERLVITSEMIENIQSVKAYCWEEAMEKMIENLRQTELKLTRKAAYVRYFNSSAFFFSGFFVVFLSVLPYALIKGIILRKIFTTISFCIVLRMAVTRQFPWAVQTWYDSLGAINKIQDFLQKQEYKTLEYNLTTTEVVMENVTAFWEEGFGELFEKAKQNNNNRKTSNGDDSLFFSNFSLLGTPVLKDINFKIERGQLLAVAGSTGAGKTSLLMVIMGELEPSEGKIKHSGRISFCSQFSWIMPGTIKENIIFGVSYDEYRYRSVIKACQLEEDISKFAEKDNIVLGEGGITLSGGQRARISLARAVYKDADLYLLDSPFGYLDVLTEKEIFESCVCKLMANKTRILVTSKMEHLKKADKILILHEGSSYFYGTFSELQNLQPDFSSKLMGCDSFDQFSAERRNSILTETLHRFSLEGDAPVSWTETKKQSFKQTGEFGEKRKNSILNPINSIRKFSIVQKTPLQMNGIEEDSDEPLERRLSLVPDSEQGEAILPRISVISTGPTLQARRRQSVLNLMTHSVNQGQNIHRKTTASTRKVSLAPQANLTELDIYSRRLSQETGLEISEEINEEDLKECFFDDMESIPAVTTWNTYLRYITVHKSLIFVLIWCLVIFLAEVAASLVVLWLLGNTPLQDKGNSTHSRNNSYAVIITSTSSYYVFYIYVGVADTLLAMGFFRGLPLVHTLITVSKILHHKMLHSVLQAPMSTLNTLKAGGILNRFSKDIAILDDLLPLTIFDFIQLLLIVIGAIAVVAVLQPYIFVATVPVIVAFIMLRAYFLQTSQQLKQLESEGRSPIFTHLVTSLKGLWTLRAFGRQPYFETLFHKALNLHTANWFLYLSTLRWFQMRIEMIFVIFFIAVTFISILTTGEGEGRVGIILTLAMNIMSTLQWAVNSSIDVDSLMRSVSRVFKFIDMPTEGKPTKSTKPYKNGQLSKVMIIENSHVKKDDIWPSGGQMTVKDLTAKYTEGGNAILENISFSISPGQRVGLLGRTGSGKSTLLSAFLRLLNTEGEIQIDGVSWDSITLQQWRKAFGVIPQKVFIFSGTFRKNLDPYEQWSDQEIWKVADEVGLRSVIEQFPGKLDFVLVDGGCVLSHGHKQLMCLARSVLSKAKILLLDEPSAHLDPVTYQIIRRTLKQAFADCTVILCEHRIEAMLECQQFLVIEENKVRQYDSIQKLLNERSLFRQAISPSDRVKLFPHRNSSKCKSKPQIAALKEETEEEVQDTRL
# Test Summary: YFP-halide influx assay for the CFTR-G178R
# Format: cell-based
Endpoint Name: pEC50
Worth noting: pEC50 values are minus log10 of concentrations stated in mol/L.

# count of solved cases: 2
- Compound: "Nc1cc(S(=O)(=O)c2ccc(OC(F)(F)F)cc2)cnc1C(=O)N[C@@H]1COCC[C@@H]1O (racemic)"
  Test Result: 6.29
- Compound: "COC[C@H](O)CNC(=O)c1ncc(S(=O)(=O)c2ccc(C(F)(F)F)cc2)cc1N"
  Test Result: 6.37

Ask: Any idea what its pEC50 is? The compound is CC(O)(CNC(=O)c1ncc(S(=O)(=O)c2ccc(F)cc2)cc1N)C(F)(F)F (stereo not drawn)
Result: 6.25

Ask: Can you share its pEC50? I mean this compound: "Nc1cc(S(=O)(=O)c2ccccc2OC(F)(F)F)cnc1C(=O)NC[C@@H](O)C(F)(F)F"
Result: 7.90

Ask: Query (compound): "C[C@H](O)CNC(=O)c1ncc(S(=O)(=O)c2ccc(OC(F)(F)F)cc2)cc1N" ; field requested: pEC50
Result: 6.55

Ask: Give the measured pEC50 of "C[C@H](O)CNC(=O)c1ncc(S(=O)(=O)c2ccc(C(F)(F)F)cc2)cc1N" .
Result: 6.26
